Biological target: LRRC20 Leucine-rich repeat-containing protein 20 (Homo sapiens)
Construct: isoTOP-ABPP experiments performed in cell lysates (in vitro); endogenous in cells; host or cells: soluble proteome of human cancer cell lines (MDA-MB-231; Ramos and Jurkat also prepared)
Sequence (Q8TCA0 whole entry): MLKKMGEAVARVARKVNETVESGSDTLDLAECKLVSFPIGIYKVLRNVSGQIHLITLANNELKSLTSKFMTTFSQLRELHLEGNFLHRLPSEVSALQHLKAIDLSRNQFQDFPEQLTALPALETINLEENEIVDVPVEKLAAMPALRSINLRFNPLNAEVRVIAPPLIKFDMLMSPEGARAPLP
Experiment: competitive isoTOP-ABPP
Type: binding
Settings: 50 uM, in vitro, sol, 231
Experimental: In vitro covalent fragment treatment for isoTOP-ABPP. All compounds were made up as solutions in DMSO (100×) and were used at a final concentration of 50 μM for activated esters and 100 μM for guanidinylating agents. […] R value calculation and processing. The ratios of light and heavy MS1 peaks for each unique peptide were quantified with a CIMAGE software using default parameters (3 MS1 acquisitions per peak and signal to noise threshold set to 2.5). […]
Provide the reported isoTOP-ABPP ratio (R) at liganded lysine Q8TCA0_K43 of each item.

1) O=C(CCc1coc2cc(F)ccc2c1=O)Oc1ccc([N+](=O)[O-])cc1[N+](=O)[O-] :: 1.1
2) O=C(Oc1ccc([N+](=O)[O-])cc1[N+](=O)[O-])c1ccc(Oc2ccccc2)cc1 [fragment 39, 2,4-Dinitrophenyl 4-phenoxybenzoate] :: 0.9
3) O=C(Oc1ccc([N+](=O)[O-])cc1[N+](=O)[O-])C(c1ccccc1)(c1ccccc1)c1ccccc1 [fragment 42, 2,4-Dinitrophenyl 2,2,2-triphenylacetate] :: 1.3

Batch of 2 compounds: report isoTOP-ABPP ratio (R) at liganded lysine Q8TCA0_K43 for each.
1. O=C(Oc1ccc([N+](=O)[O-])cc1[N+](=O)[O-])c1ccc2ccccc2n1
2. CC(=O)Oc1ccc([N+](=O)[O-])cc1[N+](=O)[O-] [fragment 43, 2,4-Dinitrophenyl acetate]

1.0
1.2
